Molecular target: T1, serum resistance-associated protein (SRA) from Trypanosoma brucei rhodesiense, recombinant SRA (SEQ ID NO: … (Trypanosoma brucei rhodesiense, UniProt O96637 31-274))
T1 construct: also called SRA protein
T1 sequence: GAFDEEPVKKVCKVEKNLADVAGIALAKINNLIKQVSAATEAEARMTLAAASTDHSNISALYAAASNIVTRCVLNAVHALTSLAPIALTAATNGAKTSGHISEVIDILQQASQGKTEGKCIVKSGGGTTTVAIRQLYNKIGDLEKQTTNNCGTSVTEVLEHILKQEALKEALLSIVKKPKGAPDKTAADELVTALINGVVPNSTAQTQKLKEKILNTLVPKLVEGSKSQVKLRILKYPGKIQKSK
Assay: SPR, mAb captured, pH 4.5, 25C; competitor biotin-mutant apoL1 peptide
MEASUREMENT NAME: 50 nM SRA + 5 uM mutant apoL1 peptide binding (RU)
Numbers only; they are read as RU.

A selection of reference data follows.
H1H10056P (antibody, V domains shown, Fully human antibody with human IgG1 Fc (prefix H1H)) VH: QVQLVESGGGVVQPGRSLRLSCSASGFTFSLYGMHWIRQAPGKGLEWVAVISYDGSNTYYGDSVKGRFTISRDNSKNTLYLQMNSLRTEDTAIYYCAKVYNWNYLFDYWGQGTLVTVSS VL: EIVLTQSPDTLSLSPGERATLSCRASQNVNNNFLAWYQQKPGQAPRLLIYGASSRATDIPERFSGSGSGTDFTLTISRLEPEDFAVYYCLHYVNSRTFGQGTKVEIK	67
H1H10069P (antibody, V domains shown, Fully human antibody with human IgG1 Fc (prefix H1H)) VH: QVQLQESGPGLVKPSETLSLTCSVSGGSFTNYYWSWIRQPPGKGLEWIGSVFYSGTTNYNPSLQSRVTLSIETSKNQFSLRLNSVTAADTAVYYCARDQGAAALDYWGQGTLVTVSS VL: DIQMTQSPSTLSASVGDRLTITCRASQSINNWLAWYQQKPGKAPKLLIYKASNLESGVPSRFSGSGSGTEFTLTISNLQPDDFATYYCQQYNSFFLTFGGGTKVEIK	52

Please report the recorded 50 nM SRA + 5 uM mutant apoL1 peptide binding (RU) for H1H10027P (antibody, V domains shown, Fully human antibody with human IgG1 Fc (prefix H1H)) VH: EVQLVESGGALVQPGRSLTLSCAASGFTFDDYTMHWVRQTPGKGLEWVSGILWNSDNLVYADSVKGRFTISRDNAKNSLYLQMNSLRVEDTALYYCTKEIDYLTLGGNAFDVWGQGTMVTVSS VL: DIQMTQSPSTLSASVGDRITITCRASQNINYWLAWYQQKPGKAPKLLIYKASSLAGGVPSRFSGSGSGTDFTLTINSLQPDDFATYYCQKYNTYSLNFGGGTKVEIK .
92
